Attribution: patent US20120295907A1

Test system: Myzus persicae
Assay: Myzus persicae (Green Peach Aphid) sunflower leaf disc spray test
Format: in vivo
Settings: foliar, 144 h, 200 ppm spray on sunflower leaf discs, aphid population of mixed ages, 6 DAT, mortality
quantity.name: pest or weed control at 200 ppm

Look over these answered cases.
{"molecule": "CCc1cc(C(F)(C(F)(F)F)C(F)(F)C(F)(F)F)cc(C)c1NC(=O)c1cccc(NC(=O)c2ccc(F)cc2Cl)c1OC (stereo not drawn) [A3]", "pest or weed control at 200 ppm": "≥ 80%"}
{"molecule": "CCc1cc(C(F)(C(F)(F)F)C(F)(F)F)cc(C)c1NC(=O)c1cccc(NC(=O)c2ccc(F)cc2Cl)c1OC [J27]", "pest or weed control at 200 ppm": "≥ 80%"}
{"molecule": "COc1c(NC(=O)c2ccc(F)cc2)cccc1C(=O)Nc1c(Cl)cc(C(F)(C(F)(F)F)C(F)(F)C(F)(F)F)cc1Cl (stereo not drawn) [C19]", "pest or weed control at 200 ppm": "≥ 80%"}
{"molecule": "COc1c(NC(=O)c2ccccc2C)cccc1C(=O)Nc1c(Cl)cc(C(F)(C(F)(F)F)C(F)(F)C(F)(F)F)cc1Br (stereo not drawn) [B4]", "pest or weed control at 200 ppm": "≥ 80%"}
{"molecule": "COc1c(NC(=O)c2ccnc(C)c2Cl)cccc1C(=O)Nc1c(Cl)cc(C(F)(C(F)(F)F)C(F)(F)C(F)(F)F)cc1Br (stereo not drawn) [B93]", "pest or weed control at 200 ppm": "≥ 80%"}

## Input Look up pest or weed control at 200 ppm for this molecule: COc1c(NC(=O)c2cc(F)cc(F)c2)cccc1C(=O)Nc1c(Cl)cc(C(F)(C(F)(F)F)C(F)(F)C(F)(F)F)cc1Br (stereo not drawn) [B168]
## Output ≥ 80%

## Input Look up pest or weed control at 200 ppm for this molecule: COc1c(NC(=O)c2ccc([N+](=O)[O-])cc2)cccc1C(=O)Nc1c(Cl)cc(C(F)(C(F)(F)F)C(F)(F)C(F)(F)F)cc1Br (stereo not drawn) [B7]
## Output ≥ 80%

## Input Look up pest or weed control at 200 ppm for this molecule: CCc1cc(C(F)(C(F)(F)F)C(F)(F)C(F)(F)F)cc(C)c1NC(=O)c1cccc(NC(=O)c2ccc([N+](=O)[O-])cc2C)c1OC (stereo not drawn) [A22]
## Output ≥ 80%

## Input Look up pest or weed control at 200 ppm for this molecule: COc1c(NC(=O)c2ccncc2Cl)cccc1C(=O)Nc1c(Cl)cc(C(F)(C(F)(F)F)C(F)(F)C(F)(F)F)cc1Br (stereo not drawn) [B66]
## Output ≥ 80%

## Input Look up pest or weed control at 200 ppm for this molecule: COc1c(NC(=O)c2ccc([N+](=O)[O-])cc2)cccc1C(=O)Nc1c(C)cc(C(F)(C(F)(F)F)C(F)(F)F)cc1C [K2]
## Output ≥ 80%

## Input Look up pest or weed control at 200 ppm for this molecule: COc1c(NC(=O)c2ccc(OC(F)(F)F)cc2)cccc1C(=O)Nc1c(Cl)cc(C(F)(C(F)(F)F)C(F)(F)F)cc1Cl [E11]
## Output ≥ 80%

## Input Look up pest or weed control at 200 ppm for this molecule: COc1c(NC(=O)c2cc(C)nn2C)cccc1C(=O)Nc1c(Cl)cc(C(F)(C(F)(F)F)C(F)(F)C(F)(F)F)cc1Br (stereo not drawn) [B42]
## Output ≥ 80%

## Input Look up pest or weed control at 200 ppm for this molecule: COc1c(NC(=O)c2ccc(C(F)(F)F)cc2)cccc1C(=O)Nc1c(Cl)cc(C(F)(C(F)(F)F)C(F)(F)F)cc1Cl [E13]
## Output ≥ 80%
